B1: library; a variant is named by its letters at N, in order (parent)
chain: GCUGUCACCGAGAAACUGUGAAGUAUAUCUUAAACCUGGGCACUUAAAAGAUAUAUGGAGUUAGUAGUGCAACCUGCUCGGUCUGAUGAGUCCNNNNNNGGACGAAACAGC

Variants of: B1
assay: FACS-Seq fitted mean relative fluorescence mCherry/BFP with ligand (log10 relative fluorescence); HEK293T; ligand: cyclic di-GMP (c-di-GMP-II aptamer); ligand concentration (+) FACS-Seq: 1 mM; higher = higher reporter protein expression
setup.conditions: ligand present: yes
Returns Y if the recorded FACS-Seq fitted mean (log10) is greater than or equal to -0.2, and N otherwise.

{"mut": "AGGAUG", "assigned.label": "Y"}
{"mut": "AGGCUU", "assigned.label": "Y"}
{"mut": "UCAAUU", "assigned.label": "Y"}

Here is another variant to look at.
Please tell me: is the variant GUGUUG at or over -0.2 in terms of FACS-Seq fitted mean (log10)?
Y
